B1: Intersectin-1, residues 1156 to 1213; numbered along this chain, Q15811 (parent)
chain: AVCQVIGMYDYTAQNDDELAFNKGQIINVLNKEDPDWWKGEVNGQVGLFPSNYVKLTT

- Variants of: B1
- METHOD: abundance fitness (aPCA) (normalised: wild type 0, dead -1); higher = more abundant; growth selection in yeast, the domain comes from the species named
- MEASUREMENT CONTEXT: Homo sapiens
READOUT KIND: abundance fitness

Sample answers from the record:
mutant=F49W readout_kind="abundance fitness" test_value=-0.76
mutant=Q45G readout_kind="abundance fitness" test_value=-0.662
mutant=L48T readout_kind="abundance fitness" test_value=-0.184
mutant=G44P readout_kind="abundance fitness" test_value=-0.806
mutant=C3F readout_kind="abundance fitness" test_value=-0.155

Please look at the items below and tell me abundance fitness for each one, in order.
1. D10A
2. K32W
3. Q45R
4. K55S
5. E18S
6. E18Y

Result:
[-0.217, -0.109, -0.043, -0.004, -0.397, -0.254]

Data provenance is the Human Domainome abundance scans (Beltran et al. 2025).
